# assay_protocol: physchem
# assay_setup: pH 7.4, aqueous buffer, kinetic from dmso stock
endpoint_label: solubility kinetic at 1.5 h

INSERT INTO assay_data (compound, observed_value) VALUES
  ('CC(C)OC(=O)C1=CN(C(=O)N2CCC[C@@H](CN(C)C)C2)CC(C)(C)c2c1[nH]c1ccccc21 [Example 50]', '> 10 µM');

Kindly note the recorded solubility kinetic at 1.5 h for CC(=O)N1CCN(Cc2cccc(C(=O)N3C=C(C(=O)OC(C)C)c4[nH]c5ccccc5c4C(C)(C)C3)c2)CC1 [Example 146] , which is 1 to 10 µM

Documented solubility kinetic at 1.5 h of CC(C)OC(=O)C1=CN(C(=O)c2cc(F)cc(C(F)(F)F)c2)CC(C)(C)c2c1[nH]c1ccccc21 [Example 134] : 1 to 10 µM

Sure, the documented solubility kinetic at 1.5 h for CC(=O)N1CCCN(Cc2cccc(C(=O)N3C=C(C(=O)OC(C)C)c4[nH]c5ccccc5c4C(C)(C)C3)c2)CC1 [Example 177] is 1 to 10 µM

Reported solubility kinetic at 1.5 h of CC(C)OC(=O)C1=CN(C(=O)c2cccc(O)c2)CC(C)(C)c2c1[nH]c1ccccc21 [Example 139] : 1 to 10 µM

Note to self: solubility kinetic at 1.5 h recorded for CC(C)OC(=O)C1=CN(C(=O)N2CCCN(C)CC2)CC(C)(C)c2c1[nH]c1ccccc21 [Example 43] was > 10 µM

Reported solubility kinetic at 1.5 h ( CC(C)OC(=O)C1=CN(C(=O)N2C[C@@H]3C[C@H]2CN3C)CC(C)(C)c2c1[nH]c1ccccc21 [Example 42] ) = > 10 µM

According to the records, this compound CC(CO)OC(=O)C1=CN(C(=O)c2ccc(F)c(F)c2)CC(C)(C)c2c1[nH]c1ccccc21 (centres unmarked) [Example 193] displays solubility kinetic at 1.5 h of 1 to 10 µM

Lookup result for CC(C)OC(=O)C1=CN(C(=O)c2cccc(F)c2)CC(C)(C)c2c1[nH]c1ccccc21 [Example 72] ; measured solubility kinetic at 1.5 h: 1 to 10 µM

# compound CC(C)OC(=O)C1=CN(C(=O)c2ccc(F)c(F)c2)CC(C)(C)c2c1[nH]c1cc(OC(=O)OC(C)(C)C)ccc21 [Example 96] ; its solubility kinetic at 1.5 h = 1 to 10 µM

# solubility kinetic at 1.5 h (compound: CCN1CCN(C(=O)N2C=C(C(=O)OC(C)C)c3[nH]c4ccccc4c3C(C)(C)C2)CC1 [Example 25] ) is > 10 µM

Sure, the documented solubility kinetic at 1.5 h for CC(C)OC(=O)C1=CN(C(=O)c2ccccc2OC(F)(F)F)CC(C)(C)c2c1[nH]c1ccccc21 [Example 70] is 1 to 10 µM

In plain terms, CC(C)OC(=O)C1=CN(C(=O)N2CCN(CC3CCN(C)CC3)CC2)CC(C)(C)c2c1[nH]c1ccccc21 [Example 29] has a documented solubility kinetic at 1.5 h of > 10 µM

solubility kinetic at 1.5 h in this record for CC(C)OC(=O)C1=CN(C(=O)N2CCCC(CN(C)C)C2)CC(C)(C)c2c1[nH]c1ccccc21 (centres unmarked) [Example 48] : > 10 µM

* * *

Items are presented alongside their recorded EC50.
# tested_target: human farnesoid X receptor (Homo sapiens, UniProt Q96RI1)
# Construct: CMX-farnesoid X receptor (full length human farnesoid X receptor); expressed in transfected cells; host or cells: CV-1 African Green Monkey Kidney cells
# Sequence (Q96RI1 1-472 isoform Q96RI1-2): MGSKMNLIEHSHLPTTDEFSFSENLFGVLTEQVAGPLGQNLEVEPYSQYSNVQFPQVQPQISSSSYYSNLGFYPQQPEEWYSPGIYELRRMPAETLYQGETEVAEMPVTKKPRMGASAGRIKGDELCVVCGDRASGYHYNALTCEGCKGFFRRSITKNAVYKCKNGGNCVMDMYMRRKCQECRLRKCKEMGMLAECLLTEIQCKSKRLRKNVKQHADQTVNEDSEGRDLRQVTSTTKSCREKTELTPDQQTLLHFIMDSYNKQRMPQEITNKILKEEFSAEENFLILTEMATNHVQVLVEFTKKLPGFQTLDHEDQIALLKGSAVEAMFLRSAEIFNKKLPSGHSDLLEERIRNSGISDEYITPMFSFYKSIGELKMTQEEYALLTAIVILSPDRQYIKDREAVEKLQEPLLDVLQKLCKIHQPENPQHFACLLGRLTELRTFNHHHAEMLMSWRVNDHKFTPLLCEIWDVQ
# Sequence (P19793 whole entry partner): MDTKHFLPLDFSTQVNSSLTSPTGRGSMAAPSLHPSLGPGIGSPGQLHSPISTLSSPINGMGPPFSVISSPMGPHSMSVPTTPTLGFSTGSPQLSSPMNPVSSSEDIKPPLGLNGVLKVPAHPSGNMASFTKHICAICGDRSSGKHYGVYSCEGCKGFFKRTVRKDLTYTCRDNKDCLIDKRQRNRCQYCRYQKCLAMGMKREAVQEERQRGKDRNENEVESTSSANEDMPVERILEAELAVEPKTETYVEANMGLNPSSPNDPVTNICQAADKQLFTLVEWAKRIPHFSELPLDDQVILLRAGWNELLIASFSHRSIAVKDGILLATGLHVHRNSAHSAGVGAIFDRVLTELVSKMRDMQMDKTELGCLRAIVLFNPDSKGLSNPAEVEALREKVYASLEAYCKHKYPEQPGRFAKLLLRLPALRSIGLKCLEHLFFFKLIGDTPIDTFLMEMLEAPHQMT
# assay_protocol: FXR in vitro assays (farnesoid X receptor/ECREx7 co-transfection assay, TR-FRET assay), Table I
# Assay type: cell-based
# assay_setup: agonist activity, one or more of the in vitro assays; read-out: EC50

INSERT INTO measurements (compound, endpoint_label, observed_value) VALUES
  ('CC(C)OC(=O)C1=CN(C(=O)c2c(F)cc(F)cc2F)CC(C)(C)c2c1[nH]c1ccccc21', 'EC50', '10 to 100 nM'),
  ('COc1ccc(C(=O)N2C=C(C(=O)OC(C)C)c3[nH]c4ccccc4c3C(C)(C)C2)cc1', 'EC50', '1 to 10 nM'),
  ('CC(C)OC(=O)C1=CN(C(=O)c2cccc(CN3CCN(C(=O)C4CC4)CC3)c2)CC(C)(C)c2c1[nH]c1ccccc21', 'EC50', '100 to 1000 nM'),
  ('CC(C)OC(=O)C1=CN(C(=O)NC2CCCCC2)CC(C)(C)c2c1[nH]c1ccccc21', 'EC50', '10 to 100 nM'),
  ('CC(C)OC(=O)C1=CN(C(=O)N2CCCC(CN3CCOCC3)C2)CC(C)(C)c2c1[nH]c1ccccc21 (centres unmarked)', 'EC50', '100 to 1000 nM'),
  ('COC(=O)C1=CN(C(=O)c2ccc(F)c(F)c2)CC(C)(C)c2c1[nH]c1ccccc21', 'EC50', '100 to 1000 nM'),
  ('CC(C)OC(=O)C1=CN(C(=O)N2CCN(CC(=O)N3CCCC3)CC2)CC(C)(C)c2c1[nH]c1ccccc21', 'EC50', '100 to 1000 nM'),
  ('CC(C)CCC(=O)N1C=C(C(=O)OC(C)C)c2[nH]c3ccccc3c2C(C)(C)C1', 'EC50', '10 to 100 nM');

Consider the record given below.
For record CC(C)OC(=O)C1=CN(C(=O)N2CCC(N3CCN(C)CC3)CC2)CC(C)(C)c2c1[nH]c1ccccc21 the listed EC50 is 1000 to 10000 nM
